target: gastric histamine H2 receptor (Cavia porcellus); construct: isolated stomach mucous membrane of the Guinea pig; settings: concentration inhibiting by 50% the secretion induced by histamine; isolated stomach mucous membrane of the Guinea pig; CM 57755 as dihydrochloride
Sequence (P47747 whole entry): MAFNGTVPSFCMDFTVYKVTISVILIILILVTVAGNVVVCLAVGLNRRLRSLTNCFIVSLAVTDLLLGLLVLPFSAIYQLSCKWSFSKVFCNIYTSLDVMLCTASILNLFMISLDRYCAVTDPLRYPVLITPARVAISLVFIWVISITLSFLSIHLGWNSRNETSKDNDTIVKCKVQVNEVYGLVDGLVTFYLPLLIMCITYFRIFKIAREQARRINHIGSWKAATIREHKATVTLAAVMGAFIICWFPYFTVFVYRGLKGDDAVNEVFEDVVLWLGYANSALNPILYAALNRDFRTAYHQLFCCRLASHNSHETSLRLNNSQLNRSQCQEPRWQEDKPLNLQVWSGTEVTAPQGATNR
Endpoint: pIC50
Lab note — pIC50 values are minus log10 of concentrations in M.

[[record]]
molecule = "CNC(=C[N+](=O)[O-])NCCSCc1ccc(CN(C)C)o1 [ranitidine, reference compound]"
target_or_system = "gastric histamine H2 receptor (Cavia porcellus)"
value_measured = 6.19


Okay, next one:
Form: molecule = CN(C)Cc1ccc(CSCCNC(=O)c2ccc[n+]([O-])c2)o1.Cl.Cl [CM 57755, dihydrochloride] ; pIC50 = 5.04

====

target: cardiac histamine H2 receptor (Cavia porcellus, UniProt P47747); construct: isolated right atrium of the Guinea pig; details: concentration inhibiting by 50% the increase in frequency induced by histamine; isolated right atrium of the Guinea pig; CM 57755 as dihydrochloride
Sequence (P47747 whole entry): as above
Measured IC50, listed per entry.
Dear colleague, please return just the value in nM, with no unit written.

[[record]]
compound = "CN(C)Cc1ccc(CSCCNC(=O)c2ccc[n+]([O-])c2)o1.Cl.Cl [CM 57755, dihydrochloride]"
target_or_system = "cardiac histamine H2 receptor (Cavia porcellus, UniProt P47747)"
endpoint = "IC50"
value_measured = 4300


Okay, next one:
Form: compound = CNC(=C[N+](=O)[O-])NCCSCc1ccc(CN(C)C)o1 [ranitidine, reference compound] ; IC50 = 86
